Where do the numbers come from? From the supplement of paper PMC10567573.

B1: C19orf51 (parent)
chain: FAPQTGARPSETFARFCKSQESAL

- Variants of: B1
- experimental-protocol: protein stability index of a GFP-peptide fusion (GPS, HEK-293T) (PSI 1-6); higher = more stable;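 further: lentivirally expressed fusions sorted by FACS into six bins by GFP to DsRed ratio, PSI derived from sequencing read proportions per bin multiplied by bin number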
- run-conditions: c terminus: a fixed tail appended
Please mark criterion met if the recorded protein stability index is equal to or greater than 2, and criterion not met if it falls below.

Take a look at these entries with their results.
1) FAPQTGARPSETFARFCKAQESAL [S19A] = criterion met
2) FAPQTGARPSELFARFCKSQESAL [T12L] = criterion met
3) FAPQTGARPCETFARFCKSQESAL [S10C] = criterion met
4) FAPQTGARPSETFARFLKSQESAL [C17L] = criterion not met
5) FAPQTGARPSETFARFCKTQESAL [S19T] = criterion not met
6) FAPQTGARPSGTFARFCKSQESAL [E11G] = criterion not met
7) FAPQTGARPSETFARRCKSQESAL [F16R] = criterion not met
8) FAPQTGARPSETFARFCKSQPSAL [E21P] = criterion not met

Has FAPQTGARPSYTFARFCKSQESAL [E11Y] a recorded protein stability index greater than or equal to 2? criterion met

Has FAPQTWARPSETFARFCKSQESAL [G6W] a recorded protein stability index greater than or equal to 2? criterion met

Has FAPQTMARPSETFARFCKSQESAL [G6M] a recorded protein stability index greater than or equal to 2? criterion met

Has FAPQTGARPSETFARFCKDQESAL [S19D] a recorded protein stability index greater than or equal to 2? criterion met

Has FAPQTGARPSETFAIFCKSQESAL [R15I] a recorded protein stability index greater than or equal to 2? criterion met
